- System: TTK
- Measurement Setup: concentration: 1 μM, replicates: in singlicate; n = 1;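 also: KINOMEscan kinase panel screen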
Value Type: %Inh

The following compounds have reported results that may help.
[
  {
    "Compound": "Cn1cncc1-c1cc2c(Nc3ccc(OCc4ccccc4)cc3)ncnc2cn1 [GW281179]",
    "Tested On": "TTK",
    "%Inh": "7%"
  },
  {
    "Compound": "Cc1c(Cn2c(C)c(C)n3c(=O)cc(N4CCOCC4)nc23)cccc1C(F)(F)F [GSK2328680]",
    "Tested On": "TTK",
    "%Inh": "0%"
  }
]

Can you look up the measured %Inh of O=C1NC(=O)C(c2ccc(Cl)cc2)=C1Nc1ccc(O)cc1 [SB-340867] for me?
100%

Can you look up the measured %Inh of O=C(Nc1n[nH]c2nc(-c3cccs3)c(Br)cc12)C1CCCC1 [SB-743341] for me?
37%

Can you look up the measured %Inh of CS(=O)(=O)CCNCc1nc(-c2ccc3ncnc(Nc4ccc(OCc5ccccc5)c(Cl)c4)c3c2)cs1.Cl [GW582764] for me?
0%

Can you look up the measured %Inh of COC(=O)c1cccc(NC(=O)NC2CCN(c3ccnc(Nc4ccc(OC)cc4)n3)C2)c1 (stereo not drawn) [GSK1379746] for me?
0%

Can you look up the measured %Inh of CNCc1ccc2nc(NC(=O)c3ccc(C(C)(C)C)cc3)cn2c1 for me?
0%

Can you look up the measured %Inh of CNc1cc(-c2ccc3c(N)n[nH]c3c2)nc(N)n1 [GSK2224810] for me?
0%

Can you look up the measured %Inh of CNc1nc(-c2ccc3c(N)n[nH]c3c2)cc(N2C[C@@H](C(=O)Nc3ccccc3)CC[C@H]2C)n1 [GSK2298859] for me?
21%

* * *

- Tested on: ALK
- Measurement Setup: concentration: 1 μM, replicates: in singlicate; n = 1
Listing of recorded %Inh by entry.
Quick reminder: number only, in %, skip the unit.

The following molecules have reported results that may help.
[
  {
    "Molecule": "COc1ccc(-c2coc3ccc(-c4nnc(C)o4)cc23)cc1",
    "Measured Result": 0
  },
  {
    "Molecule": "COC(=O)C(NC(=O)NC1CCN(c2ccnc(Nc3ccc(F)cc3)n2)C1)c1ccccc1 (stereo not shown)",
    "Measured Result": 19
  }
]

Can you look up the measured %Inh of Cc1ccc(NC(=O)Nc2ccccc2)cc1-c1ccc(C(=O)Nc2ccncc2)cc1 for me?
21

Can you look up the measured %Inh of CS(=O)(=O)CCNCc1nc(-c2ccc3ncnc(Nc4ccc5c(cnn5Cc5ccccc5)c4)c3c2)cs1.Cl.Cl for me?
31

* * *

- System: GRK1
- Measurement Setup: concentration: 1 μM, replicates: in singlicate; n = 1
Listing of recorded %Inh by entry.
Quick reminder: number only, in %, skip the unit.

The following molecules have reported results that may help.
[
  {
    "Molecule": "COC(=O)C(Cc1ccccc1)NC(=O)NC1CCN(c2ccnc(Nc3ccc(F)cc3)n2)C1 (stereo not drawn)",
    "Endpoint Unit": "%",
    "%Inh": 100
  },
  {
    "Molecule": "CN1c2ccc(-c3ccc(C(N)=O)cc3)cc2-c2[nH]ncc2S1(=O)=O",
    "Endpoint Unit": "%",
    "%Inh": 1
  },
  {
    "Molecule": "COc1nccc(-c2c(-c3ccc(F)cc3)ncn2CCCN2CCOCC2)n1",
    "Endpoint Unit": "%",
    "%Inh": 29
  },
  {
    "Molecule": "CC(=O)c1c(C)c2cnc(Nc3ccn(C)n3)nc2n(C2CCCC2)c1=O",
    "Endpoint Unit": "%",
    "%Inh": 0
  },
  {
    "Molecule": "O=C(Nc1n[nH]c2cc(-c3ccsc3)ccc12)C1CC1",
    "Endpoint Unit": "%",
    "%Inh": 0
  },
  {
    "Molecule": "COc1ccc(Nc2nccc(N3CCC(NC(=O)C(C)c4ccc(Cl)cc4)C3)n2)cc1 (stereo not drawn)",
    "Endpoint Unit": "%",
    "%Inh": 7
  },
  {
    "Molecule": "COc1cccc(C2=C(Nc3cc(Cl)c(O)c(Cl)c3)C(=O)NC2=O)c1",
    "Endpoint Unit": "%",
    "%Inh": 3
  },
  {
    "Molecule": "FC(F)(F)c1ccccc1-c1cc(-c2c[nH]nc2-c2ccccn2)ccn1",
    "Endpoint Unit": "%",
    "%Inh": 0
  },
  {
    "Molecule": "O=C(Nc1n[nH]c2nc(-c3ccco3)c(Br)cc12)C1CCN(Cc2ccccc2)C1.O=C(O)[C@H](O)[C@@H](O)C(=O)O (stereo not drawn)",
    "Endpoint Unit": "%",
    "%Inh": 42
  },
  {
    "Molecule": "CS(=O)(=O)CCNCc1nc(-c2ccc3ncnc(Nc4ccc5c(cnn5Cc5ccccc5)c4)c3c2)cs1.Cl.Cl",
    "Endpoint Unit": "%",
    "%Inh": 0
  }
]

Can you look up the measured %Inh of O=c1cc(N2CCOCC2)nc2n(Cc3ccccc3F)ccn12 for me?
0

Can you look up the measured %Inh of CNCc1ccc2nc(NC(=O)c3ccc(C(C)(C)C)cc3)cn2c1 for me?
13

Can you look up the measured %Inh of Nc1cccc(-c2ccc3c(N)n[nH]c3c2)n1 for me?
21

Can you look up the measured %Inh of O=C(Nc1n[nH]c2nc(-c3cccs3)c(Br)cc12)C1CCCC1 for me?
26

Can you look up the measured %Inh of CNc1cc(-c2ccc3c(N)n[nH]c3c2)nc(N)n1 for me?
6

Source: paper PMC5540273
